target_system: HIV-1 JR-CSF Env N386A (HIV-1 isolate JR-CSF) (UniProt P20871)
experiment_summary: cell-based or functional assay
measure: Fold IC50 increase relative to wild-type
Param answer (str): number followed by unit.

Worked set:
binder="PGT-125 (antibody, V domains shown) VH: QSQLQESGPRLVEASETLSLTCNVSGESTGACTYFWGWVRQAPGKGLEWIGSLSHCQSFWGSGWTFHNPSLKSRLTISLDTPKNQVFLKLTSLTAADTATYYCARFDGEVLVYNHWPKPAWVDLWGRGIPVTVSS VL: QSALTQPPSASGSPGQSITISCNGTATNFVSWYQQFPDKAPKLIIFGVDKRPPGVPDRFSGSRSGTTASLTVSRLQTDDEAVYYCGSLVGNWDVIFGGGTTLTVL" measure="Fold IC50 increase relative to wild-type" reported="0.8 fold"
binder="PGT-128 (antibody, V domains shown) VH: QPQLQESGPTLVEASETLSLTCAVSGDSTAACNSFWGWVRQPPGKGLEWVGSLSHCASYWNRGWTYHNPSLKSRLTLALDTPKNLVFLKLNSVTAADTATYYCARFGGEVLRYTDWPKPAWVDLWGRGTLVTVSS VL: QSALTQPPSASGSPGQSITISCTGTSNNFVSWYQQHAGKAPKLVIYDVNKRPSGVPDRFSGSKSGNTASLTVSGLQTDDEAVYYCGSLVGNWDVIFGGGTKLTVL" measure="Fold IC50 increase relative to wild-type" reported="1.1 fold"

// switching to the query binder
Fill blank: measured Fold IC50 increase relative to wild-type of the binder PGT-127 (antibody, V domains shown) VH: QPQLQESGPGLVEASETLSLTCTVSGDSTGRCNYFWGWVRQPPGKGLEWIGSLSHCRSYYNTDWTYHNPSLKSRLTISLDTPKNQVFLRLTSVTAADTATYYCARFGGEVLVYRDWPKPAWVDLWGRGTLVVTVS VL: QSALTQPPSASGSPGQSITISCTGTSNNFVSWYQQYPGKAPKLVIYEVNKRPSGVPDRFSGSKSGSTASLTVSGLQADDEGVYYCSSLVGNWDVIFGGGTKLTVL is ____.
0.6 fold
